# credit: patent US20220177587A1

molecular target: human CTLA-4 (human) (UniProt P16410); assay: flow cytometry, Expi293F cells transfected with CTLA-4
Sequence (P16410 36-223): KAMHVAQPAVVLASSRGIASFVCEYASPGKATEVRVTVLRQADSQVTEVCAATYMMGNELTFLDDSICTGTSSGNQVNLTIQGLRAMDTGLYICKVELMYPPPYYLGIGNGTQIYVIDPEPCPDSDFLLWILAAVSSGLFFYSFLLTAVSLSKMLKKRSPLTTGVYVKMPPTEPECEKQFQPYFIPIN
Would you kindly list parental ratio for each of these binders?

CD80 E24G/R29D/Y31L/Q33H/K36G/M38I/T41A/M43R/M47T/F59L/E81V/L85R/K89N/A91T/F92P/K93V/R94L/H96R/N149S/C182S ECD-Fc (Fc fusion) VIHVTKEVKEVATLSCGHNVSVEGLAQTDILWHKEGKIVLAMRSGDTNIWPEYKNRTILDITNNLSIVILALRPSDEGTYVCVVRKYENDTPVLERLAEVTLSVKADFPTPSISDFEIPTSNIRRIICSTSGGFPEPHLSWLENGEELSAINTTVSQDPETELYAVSSKLDFNMTTNHSFMSLIKYGHLRVNQTFNWNTTKQEHFPDN
0.02

Exam item: Return reported parental ratio; argument: CD80 V22A/L70Q/S121P ECD-Fc (Fc fusion) VIHVTKEVKEVATLSCGHNVSAEELAQTRIYWQKEKKMVLTMMSGDMNIWPEYKNRTIFDITNNLSIVIQALRPSDEGTYECVVLKYEKDAFKREHLAEVTLSVKADFPTPSISDFEIPTPNIRRIICSTSGGFPEPHLSWLENGEELNAINTTVSQDPETELYAVSSKLDFNMTTNHSFMCLIKYGHLRVNQTFNWNTTKQEHFPDN
Marked response: 0.04
